# Test system: Escherichia coli TOP10;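 also: peptides expressed intracellularly from a pBAD plasmid library in pooled LB shake-flask culture, induced with 0.3% L-arabinose, DNA abundance read by NGS, three biological replicates, DESeq2 with apeglm shrinkage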
# measurement_notes: shrunken log2 fold change of peptide-encoding DNA abundance (4.5 h post-induction vs induction); higher = less antimicrobial activity (less host growth inhibition)
# measurement_conditions: time post-induction: 4.5 h; library: site-saturation at positions 5, 18, 19, 20
Would you mind labelling by shrunken log2 fold change? At or over 0.04 is label 1, under is label 0.

| chain | class |
| --- | --- |
| RRIRCRPPRLPRPRPRPFHPPRP | label 0 |
| RRIRGRPPRLPRPRPRPIYCPRP | label 1 |
| RRIRKRPPRLPRPRPRPQAAPRP | label 1 |
| RRIRWRPPRLPRPRPRPVFQPRP | label 1 |
| RRIRQRPPRLPRPRPRPDSNPRP | label 0 |
| RRIRWRPPRLPRPRPRPLLAPRP | label 1 |
| RRIRNRPPRLPRPRPRPSICPRP | label 0 |
| RRIRTRPPRLPRPRPRPTWEPRP | label 1 |
| RRIRMRPPRLPRPRPRPPNHPRP | label 1 |
| RRIRMRPPRLPRPRPRPAHFPRP | label 1 |
| RRIRVRPPRLPRPRPRPPRFPRP | label 1 |
| RRIRLRPPRLPRPRPRPMEWPRP | label 0 |
| RRIRFRPPRLPRPRPRPQTKPRP | label 0 |
| RRIRHRPPRLPRPRPRPRHVPRP | label 0 |
| RRIRDRPPRLPRPRPRPSLQPRP | label 1 |
| RRIRQRPPRLPRPRPRPRFQPRP | label 1 |
| RRIRVRPPRLPRPRPRPTVCPRP | label 1 |
| RRIRNRPPRLPRPRPRPNTWPRP | label 0 |
| RRIRWRPPRLPRPRPRPEQAPRP | label 0 |
| RRIRRRPPRLPRPRPRPWFKPRP | label 0 |
| RRIRARPPRLPRPRPRPQFTPRP | label 1 |
| RRIRMRPPRLPRPRPRPMDPPRP | label 0 |
| RRIRRRPPRLPRPRPRPEFMPRP | label 1 |
| RRIRNRPPRLPRPRPRPSFMPRP | label 0 |
| RRIRVRPPRLPRPRPRPLLVPRP | label 0 |
| RRIRYRPPRLPRPRPRPVKIPRP | label 0 |
| RRIRKRPPRLPRPRPRPFFDPRP | label 1 |
| RRIRYRPPRLPRPRPRPPYRPRP | label 0 |
| RRIRLRPPRLPRPRPRPQFTPRP | label 0 |
| RRIRTRPPRLPRPRPRPALGPRP | label 1 |
| RRIRERPPRLPRPRPRPDIKPRP | label 0 |
